System: Providencia Du 48
assay-details: M.I.C., dilutions in liquid medium
Type: cell-based
measurement-parameters: Providencia, DU48; 24 Hr., 37° C.
Assignment: determine reported MIC for the given compounds.
Numbers only, in µg/mL.

Solved cases (2 shown):
compound="CON=C(C(=O)NC1C(=O)N(S(=O)(=O)O)C1CCl)c1csc(N)n1 (mixture of isomers)" quantitative_result=0.62
compound="CC(C)(ON=C(C(=O)NC1C(=O)N(S(=O)(=O)O)C1CF)c1csc(N)n1)C(=O)O (mixture of isomers)" quantitative_result=0.15

Quick batch: MIC for everything below.
1. Nc1nc(C(=NOC(F)F)C(=O)NC2C(=O)N(S(=O)(=O)O)C2CF)cs1 (mixture of isomers)
2. CON=C(C(=O)NC1C(=O)N(S(=O)(=O)O)C1CF)c1csc(N)n1 (mixture of isomers)
3. NCCON=C(C(=O)NC1C(=O)N(S(=O)(=O)O)C1CCl)c1csc(N)n1 (mixture of isomers)
4. Nc1nc(C(=NO)C(=O)NC2C(=O)N(S(=O)(=O)O)C2CCl)cs1 (mixture of isomers)

# output
[0.3, 0.3, 2.5, 0.6]

====

Assignment: determine reported MIC for the given compounds.
Tested on: Proteus vulgaris (indol +) A 232
assay-details: M.I.C., dilutions in liquid medium
Type: cell-based
measurement-parameters: Proteus vulgaris; 24 Hr., 37° C.
Give bare numbers, in µg/mL.

Solved cases (2 shown):
compound="Nc1nc(C(=NO)C(=O)NC2C(=O)N(S(=O)(=O)O)C2CCl)cs1 (mixture of isomers)" measured_endpoint=MIC quantitative_result=0.6
compound="NCCON=C(C(=O)NC1C(=O)N(S(=O)(=O)O)C1CCl)c1csc(N)n1 (mixture of isomers)" measured_endpoint=MIC quantitative_result=1.2

Kindly consider the entry below.
# input Form field: reported MIC of CON=C(C(=O)NC1C(=O)N(S(=O)(=O)O)C1CCl)c1csc(N)n1 (mixture of isomers)
# output 0.08

====

Assignment: determine reported MIC for the given compounds.
Test system: Proteus mirabilis (indol -) A 235
assay-details: M.I.C., dilutions in liquid medium
Format: cell-based
measurement-parameters: Proteus mirabilis, 24 h, 37° C.
One number for each entry, in µg/mL.

Solved cases (3 shown):
compound="CON=C(C(=O)NC1C(=O)N(S(=O)(=O)O)C1CCl)c1csc(N)n1 (mixture of isomers)" value_units=µg/mL quantitative_result=0.16
compound="CON=C(C(=O)NC1C(=O)N(S(=O)(=O)O)C1CF)c1csc(N)n1 (mixture of isomers)" value_units=µg/mL quantitative_result=0.08
compound="NCCON=C(C(=O)NC1C(=O)N(S(=O)(=O)O)C1CCl)c1csc(N)n1 (mixture of isomers)" value_units=µg/mL quantitative_result=0.6

Kindly consider the entry below.
# input Form field: reported MIC of Nc1nc(C(=NO)C(=O)NC2C(=O)N(S(=O)(=O)O)C2CCl)cs1 (mixture of isomers)
# output 0.6

====

System: Providencia Du 48
assay-details: M.I.C., dilutions in liquid medium
Assay type: cell-based
measurement-parameters: Providencia, DU48; 48 Hr., 37° C.
Rule for this label: YES means MIC is less than 0.6 µg/mL; NO means MIC is at least 0.6 µg/mL.

# example entries with known answers
compound="Nc1nc(C(=NO)C(=O)NC2C(=O)N(S(=O)(=O)O)C2CCl)cs1 (mixture of isomers) [Example 4]" qualitative_label=NO
compound="CC(C)(ON=C(C(=O)NC1C(=O)N(S(=O)(=O)O)C1CF)c1csc(N)n1)C(=O)O (mixture of isomers) [Example 6]" qualitative_label=YES
compound="CON=C(C(=O)NC1C(=O)N(S(=O)(=O)O)C1CCl)c1csc(N)n1 (mixture of isomers) [Example 1]" qualitative_label=NO
compound="Nc1nc(C(=NOC(F)F)C(=O)NC2C(=O)N(S(=O)(=O)O)C2CF)cs1 (mixture of isomers) [Example 8]" qualitative_label=YES
compound="CON=C(C(=O)NC1C(=O)N(S(=O)(=O)O)C1CF)c1csc(N)n1 (mixture of isomers) [Example 5]" qualitative_label=YES

Then there is this compound:
# input Threshold test, MIC < 0.6 µg/mL: NCCON=C(C(=O)NC1C(=O)N(S(=O)(=O)O)C1CCl)c1csc(N)n1 (mixture of isomers) [Example 3]
# output NO
